# Study System: T1, human CD22-Fc fusion protein (human, UniProt P20273 20-687, limits assumed)
# T1 construct: also called recombinant CD22-Fc fusion protein; not shown: Fc part
# T1 sequence (looked up): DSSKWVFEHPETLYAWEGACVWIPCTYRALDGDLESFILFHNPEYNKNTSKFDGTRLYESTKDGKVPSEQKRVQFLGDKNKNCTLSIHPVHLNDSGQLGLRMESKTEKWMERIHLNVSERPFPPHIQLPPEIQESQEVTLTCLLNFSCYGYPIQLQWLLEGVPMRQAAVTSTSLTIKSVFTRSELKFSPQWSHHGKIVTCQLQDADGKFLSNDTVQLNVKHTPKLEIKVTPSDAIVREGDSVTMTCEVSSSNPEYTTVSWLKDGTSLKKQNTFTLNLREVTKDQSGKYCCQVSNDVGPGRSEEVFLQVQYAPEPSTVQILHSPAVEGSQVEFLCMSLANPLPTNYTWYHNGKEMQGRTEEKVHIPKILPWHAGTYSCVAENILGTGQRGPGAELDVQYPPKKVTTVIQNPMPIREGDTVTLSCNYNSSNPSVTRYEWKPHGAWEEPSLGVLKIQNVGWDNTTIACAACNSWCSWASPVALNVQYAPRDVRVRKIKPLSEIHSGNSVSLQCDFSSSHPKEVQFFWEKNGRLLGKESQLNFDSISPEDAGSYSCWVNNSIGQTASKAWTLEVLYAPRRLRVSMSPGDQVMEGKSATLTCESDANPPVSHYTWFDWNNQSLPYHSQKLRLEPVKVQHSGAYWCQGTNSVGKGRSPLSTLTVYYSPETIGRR
# Test Name: SPR Biacore T200; CD22-Fc captured on Protein G chip, scFv as analyte;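 also: run in 1×HBST buffer, with the response of reference flow cell 1 subtracted from the CD22 capture cell and kinetics fitted in Biacore T200 evaluation software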
Items are presented alongside their recorded Kd.
Number in nM, nothing else.

Worked cases, Kd given:
EP35-F7 scFv (scFv, also called EP35-F07; not shown: C-terminal flag and 6xHIS tag) scFv: EVQLVQSGGGVVQPGRSLRLSCAASGFTFSSYGMHWVRQAPGKGLEWVAVIWYDGSNKYYADSVKGRFTISRDNSKNTLYLQMNSLRAEDTAVYYCARDGWKGFDYWGQGTTVTVSSGGGGSGGGGSGGGGSEIVLTQSPATLSVSPGEGVTLSCRASQSVSSNLAWYQQRPGQAPRLLIYGASIKATDVPDRFSGGGSGTDFTLSISNLQSEDFAVYYCQQYHTWPPVTFGGGTKVEIK	11.3
EP160-F04 scFv (scFv, VH-VL orientation; not shown: C-terminal flag and 6xHIS tag) scFv: EVQLVQSGAEVKKPGASVKVSCKASGYTFTSYGISWVRQAPGQGLEWMGWISAYNGNTNYAQKLQGRVTMTTDTSTSTAYMELRSLKSDDTAVYYCAISIGAFDIWGQGTMVTVSSGGGGSGGGGSGGGGSEIVMTQSPATLSVSPGEEVTLSCRASQSVSSNLAWYQQRPGQAPRLLIYGASIKATDVPDRFSGGGSGTDFTLSISNLQSEDFAVYYCQQYHTWPPVTFGGGTKVEIK	5.89
EP160-D02 scFv (scFv, VH-VL orientation; made in E. coli, His-tag purified; also called EP160-D2; not shown: C-terminal flag and 6xHIS tag) scFv: QVQLVQSGAEVKKPGASVKVSCKASGYTFTSYGISWVRQAPGQGLEWMGWISAYNGNTNYAQKLQGRVTMTTDTSTSTAYMELRSLRSDDTAVYYCARDPLEPLESDYWGQGTLVTVSSGGGGSGGGGSGGGGSEIVMTQSPATLSVSPGEGVTLSCRASQSVSSNLAWYQQRPGQAPRLLIYGASIKATDVPDRFSGGGSGTDFSLSITNLQSEDFAVYYCQQYHTWPPVTFGGGTKVEIK	0.0194

Query binder follows.
Lab book: Kd of EP97-F01 scFv (scFv, VH-VL orientation; not shown: C-terminal flag and 6xHIS tag) scFv: QVQLVQSGAEVKKPGASVKVSCKASGYTFTSYGISWVRQAPGQGLEWMGWISAYNGNTNYAQKLQGRVTMTTDTSTSTAYMELRSLRSDDTAVYYCARDHIAAAGDYWGQGTLVTVSSGGGGSGGGGSGGGGSEIVMTQSPATLSVSPGEGVTLSCRASQSVSSNLAWYQQRPGQAPRLLIYGASIKATDVPDRFSGGGSGTDFTLSITNLQSEDFAVYYCQQYHTWPPVTFGGGTKVEIK noted as 0.219
